Entry source: patent US5519034A

molecular target: D1 dopamine receptors (Rattus norvegicus, UniProt P18901); construct: Striatal samples from the brains of male Charles River CD rats; experiment: D1 dopamine receptor binding: inhibition of tritiated SCH 23390 binding, rat striatal samples; conditions: rat striatum, tritiated SCH 23390, pH 7.4, 37° C., 30 minutes
Sequence (P18901 whole entry): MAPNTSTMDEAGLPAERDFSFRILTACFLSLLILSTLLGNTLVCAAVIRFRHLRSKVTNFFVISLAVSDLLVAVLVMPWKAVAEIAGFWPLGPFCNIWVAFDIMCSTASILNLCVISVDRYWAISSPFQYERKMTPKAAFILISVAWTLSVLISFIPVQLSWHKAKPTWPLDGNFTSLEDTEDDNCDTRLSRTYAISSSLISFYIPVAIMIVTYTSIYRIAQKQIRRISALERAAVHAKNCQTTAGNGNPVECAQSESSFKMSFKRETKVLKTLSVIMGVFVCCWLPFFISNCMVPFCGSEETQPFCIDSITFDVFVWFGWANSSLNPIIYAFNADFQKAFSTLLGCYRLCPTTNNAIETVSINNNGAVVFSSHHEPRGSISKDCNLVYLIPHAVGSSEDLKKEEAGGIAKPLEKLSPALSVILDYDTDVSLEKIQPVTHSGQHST
test readout: Ki (nM)

Reference set, count: 3
CN1CCc2cc(F)c(O)cc2C1C1(c2ccc(Cl)cc2Cl)CC1 (stereo not drawn) :: 1.9
COc1cc2c(cc1O)C(C1(c3ccc(Cl)cc3Cl)CCC1)N(C)CC2 (stereo not drawn) :: 0.6
CN1CCc2cc(Cl)c(O)cc2C1C1(c2ccccc2)CCC1 (stereo not drawn) [Example 28] :: 11

a = CN1CCc2cc(O)c(O)cc2C1C1(c2ccccc2)CCCCC1 (stereo not drawn)
b = CN1CCc2c(O)cccc2C1C1(c2ccc(Cl)cc2)CCC1 (stereo not drawn)
c = COc1cc2c(cc1O)C(C1(c3ccccc3Cl)CCCC1)N(C)CC2 (stereo not drawn)
d = C=CCN1CCc2cc(Cl)c(O)cc2C1C1(c2ccccc2)CCC1 (stereo not drawn)
e = CN1CCc2cc(F)c(O)cc2C1C1(c2ccc(Cl)cc2)CCC1 (stereo not drawn)
q: Please order the records by their reported Ki, lowest number first. Kindly provide the labels arranged according to the requested ordering.
a: e, c, d, a, b

* * *

biological target: D1 dopamine receptors (Rattus norvegicus, UniProt P18901); construct: Striatal samples from the brains of male Charles River CD rats; experiment: D1 dopamine receptor binding: inhibition of tritiated SCH 23390 binding, rat striatal samples; conditions: rat striatum, tritiated SCH 23390, pH 7.4, 37° C., 30 minutes
test readout: Ki (nM)

CCN1CCc2cc(O)c(O)cc2C1C1(c2ccc(Cl)cc2)CCC1 (stereo not shown) :: 120

I = COc1cccc(C2(C3c4cc(O)c(OC)cc4CCN3C)CCC2)c1 (stereo not shown)
II = CN1CCc2cc(-c3ccccc3)c(O)cc2C1C1(c2ccccc2Cl)CCC1 (stereo not shown)
III = CN1CCc2cc(Cl)c(O)cc2C1C1(c2ccccc2)CC(C)(C)C1 (stereo not shown)
q: Put the items in order so that reported Ki rises from first to last. Give the labels in the order requested.
a: I, III, II
(I: 23 nM, III: 66 nM, II: 150 nM)

P = COCCN1CCc2cc(OC)c(O)cc2C1C1(c2ccccc2Cl)CC1 (stereo not shown)
Q = COc1cc2c(cc1O)C(C1(c3ccc(OC(F)(F)F)cc3)CCC1)N(C)CC2 (stereo not shown)
q: Select one. Lower Ki: P or Q Which one? Tell me its label.
a: Q
(Q: 47 nM, P: 150 nM)

* * *

target: D2 dopamine receptors (Rattus norvegicus, UniProt P61169); construct: Striatal samples from the brains of male Charles River CD rats; from tissue; host or cells: striatum of male Charles River CD rats (washed membrane pellet); assay: D2 dopamine receptor binding: inhibition of tritiated (S)-sulpiride binding, rat striatal samples; set-up: species or system rat (male Charles River CD rats); settings: rat striatum, tritiated (S)-sulpiride, pH 7.7, 4° C., 40 minutes; > = from highest concentration which displaced ≤50% of the ligand; read-out: Ki for D2 binding
Sequence (P61169 whole entry): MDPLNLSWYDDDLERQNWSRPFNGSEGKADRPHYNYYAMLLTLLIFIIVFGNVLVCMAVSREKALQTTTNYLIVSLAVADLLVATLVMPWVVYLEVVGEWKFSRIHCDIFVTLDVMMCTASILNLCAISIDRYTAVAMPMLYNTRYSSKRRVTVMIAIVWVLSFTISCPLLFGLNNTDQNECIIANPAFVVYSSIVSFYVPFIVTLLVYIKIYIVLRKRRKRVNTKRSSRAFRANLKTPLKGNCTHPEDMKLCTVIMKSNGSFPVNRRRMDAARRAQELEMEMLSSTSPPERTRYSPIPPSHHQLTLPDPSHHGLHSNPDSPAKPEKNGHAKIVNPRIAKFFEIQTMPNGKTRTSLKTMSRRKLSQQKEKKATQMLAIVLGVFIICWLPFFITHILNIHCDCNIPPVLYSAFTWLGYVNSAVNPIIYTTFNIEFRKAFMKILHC
pKi: −log10 of the molar value.
test readout: pKi

CN1CCc2cc(O)c(O)cc2C1C1(c2ccccc2Cl)CCC1 (stereo not shown) :: 4.92

a = CN1CCc2cc(O)c(O)cc2C1C1(c2ccc(-c3ccccc3)cc2)CCC1 (stereo not shown)
b = CN1CCc2ccc(O)cc2C1C1(c2ccccc2Cl)CCC1 (stereo not shown)
q: pKi comparison. Which is larger, a or b ? Record your answer as the label of the chosen record.
a: a
(a: 6.26, b: 4.72)
